System: T1, human CD115 extracellular domain (Sino Biological 10161-H08H) (human, UniProt P07333 20-517)
T1 construct: extracellular domain; bought recombinant protein; also called huCD115; hu-CD115
Experimental Details: competition ELISA, competitor TMR 100A;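 further: clonal anti-huCD115 hybridoma supernatants tested for binding with the competitor antibody present, clones failing to bind are assigned to the competitor's epitope bin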;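 further: low signal means same epitope bin as the mouse competitor antibody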
Measured signal vs NO COMP=100, listed per entry for reference.

Binder	U	signal vs NO COMP=100
CCK-421A (antibody, V domains shown, AlivaMab chimeric IgG, human kappa LC) VH: QVQLQESGPGLVKPSETLSLTCTVTGGSISSYYWSWIRQPAGKGLEWIGRIYTSGSTNYNPSLKSRVTMSVDTSKNHFSLKLSSVTAADTAVYYCAREILVVVAATRTGGVFDIWGQGTMVTVSS VL: DIQMTQSPSTLSASVGDRVTITCRASQSISSWLAWYQRKPGKAPKLLIYKASTLESGVPSRFSGSGSGTEFTLTISSLQPDDFATYYCQQFNSYWTFGQGTKVEIK	%	99
CCK-424A (antibody, V domains shown, AlivaMab chimeric IgG, human kappa LC) VH: QVQLQESGPGLVKPSETLSLTCTVSGGSISSYYWSWIRQPPGKVLEWIGYFSYNGNTNYNPSLKSRVTISVDTSKNQFSLKLSSVTAADTAVYYCTRGMDVWGQGTTVTVSS VL: DIQMTQSPSTLSASVGDRVTITCRASQSISDWLAWYLQKPGKAPKLLIYKASSLESGVPSRFSGSGSGTAFTLTISSLQPDDFATYYCQQYNSHWTFGQGTKVEIK	%	98
CCK-541A (antibody, V domains shown, AlivaMab chimeric IgG, human kappa LC) VH: QVQLQESGPGLVKPSETLSLTCTVSGASISTYFWSWLRQPPGKGLEWIGYIFYSGSINYNPSLKSRVTISVDTSKNQFSLELSSVTAADTAVYYCARDRTFYGMDVWGQGTTVTVSS VL: EIVLTQSPGTLSLPPGERATLSCRASQNVSSTYLAWYHQKPGQAPRLLIYGASSRATGIPDRFSGSGSGTDFTLTISRLEPEDFAVYYCQQYGSSPRTFGQGTKVEIK	%	93
CCK-417A (antibody, V domains shown, AlivaMab chimeric IgG, human kappa LC) VH: QVTLRESGPALVKPTQTLTLTCTFSGFSLSTSGMCVSWIRQPPGKALECLALIDWDDDKYYSTSLKTRLTISKDTSKNQVVLTMTNMDPVDTATYYCARTQLGIADYWGQGTLVTVSS VL: AIRMTQSPSSFSASTGDRVTITCRASQGISSYLAWYQQKPGKAPKLLIYAASTLQSGVPSRFSGSGSGTDFTLTISCLQSEDFATYYCQQYYSYPFTFGPGTKVDIK	%	113
CCK-525A (antibody, V domains shown, AlivaMab chimeric IgG, human kappa LC) VH: QVQLVESGGGVVQPGRSLRLSCAASGFTFSSYGMHWVRQAPGKGLEWVAVIWYDGSIKYYADSVKGRFTISRDNSKNTLYLQMNSLRAEDTAVYYCARATYYYDSSGYYSNWFDPWGQGTLVTVSS VL: DIQMTQSPSSVSASVGDRVTITCRASQGISSWLAWYQQKPGKAPKLLIYAASSLQSGVPSRFSGSGSGTDFTLTISSLQPEDFATYYCQQANTFPFTVGPGTKVDIK	%	100
CCK-465A (antibody, V domains shown, AlivaMab chimeric IgG, human kappa LC) VH: QVQLQESGPGLVKPSETLSLSCTVSGGSISSYYWSWIRQPAGKGLEWIGRIYTSGSTNYNPSLKSRVTMSVDTSKNQFSLKLSSVTAADTAVYYCARDRSFYGMDVWGQGTTVTVSS VL: DIQMTQSPSSLSASVGDRVTITCRASQGFSNYLAWYQQKPGKVPKLLIYAASTLQSGVPSRFSGSGSGTDFTLTISSLQPEDVATYYCQKYNSAPLTFGGGTKVEIK	%	92
429 (Table 4, bin 1C block) (antibody, V domains shown, not tied) VH: QVQLEQSGAEVKRPGASVKVSCKASGYTFTGYYMHWVRQAPGQGLEWMGWINPNRGDTNYAQKFQGRVTMTRDTSISTAYMELSRLRSDDTAVYYCARDLEGGGPFDYWGQGTLVTVSS VL: DIVMTQTPLSLPVTPGEPASISCRSSQSLLDSDDGNTYLDWYLQKPGQSPQLLIYTLSYRASGVPDRFSGSGSGTDFTLKISRVEAEDVGVYYCMQRIEFPSTFGQGTRLEIK	%	107
CCK-464A (antibody, V domains shown, AlivaMab chimeric IgG, human kappa LC) VH: EVQLVESGGGLVKPGGSLRLSCAASGFTFSSYNMNWVRQAPGKGLEWVSSISSSSTYIYYADSLKGRFTISRDNAMNSLYLQMSSLRAEDTAVYYCARDSGTYPYYYFGMDVWGQGTTVTVSS VL: DIQLTQSPSFLSASVGDRVTITCRASQGISSYLAWYQQKPGKAPKLLIYAASTLQSGVPSRFSGSGSGTEFTLTISSLQPEDFATYYCQQLNTYPRTFGQGTKVEIK	%	96
